Reference for the values: patent US20240208978A1

- measured_target: mIDH1 R132H (Homo sapiens, UniProt O75874, R132H)
- Construct: expressed in transfected cells; host or cells: U87MG
- Sequence (O75874 whole entry R132H): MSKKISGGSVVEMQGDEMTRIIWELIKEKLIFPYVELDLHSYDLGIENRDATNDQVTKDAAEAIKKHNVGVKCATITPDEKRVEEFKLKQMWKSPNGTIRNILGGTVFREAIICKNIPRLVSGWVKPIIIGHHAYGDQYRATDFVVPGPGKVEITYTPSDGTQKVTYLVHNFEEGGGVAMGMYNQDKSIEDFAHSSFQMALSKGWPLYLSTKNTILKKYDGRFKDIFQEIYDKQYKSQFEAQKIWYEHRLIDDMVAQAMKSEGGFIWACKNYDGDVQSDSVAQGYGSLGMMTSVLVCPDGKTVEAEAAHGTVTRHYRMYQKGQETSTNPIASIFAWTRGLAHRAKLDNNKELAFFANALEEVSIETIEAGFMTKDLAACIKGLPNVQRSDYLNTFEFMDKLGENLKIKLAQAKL
- assay_procedure: Detection of 2-HG in supernatant of U87-IDH1 R132H cells
- Assay type: cell-based
- assay_setup: U-87 MG; 10 nM compound, 72 h, U87MG cells overexpressing mIDH1 R132H, LC-MS-MS; read-out: Inhibition rate on 2-HG in the supernatant of U87-IDH R132H cells, 10 nM
// inhibition at 0.01 µM lookup, one value per entry

Solved cases below.
compound | measured_endpoint | result
C=CC(=O)N1CCN(C2(c3ccc([C@H](C)Nc4ncc5[nH]c(=O)n(CC)c5n4)cc3)CCC(F)(F)CC2)CC1 | inhibition at 0.01 µM | 60 to 90%
C=CC(=O)N1CC2(C1)CN(C(CC1CC1)c1ccc([C@H](C)Nc3ncc4[nH]c(=O)n(CC)c4n3)cc1)C2 (stereo partly shown) | inhibition at 0.01 µM | > 90%
C=CC(=O)N1CCC2(CC1)CN(C(CC1CC1)c1ccc([C@H](C)Nc3ncc4[nH]c(=O)n(CC)c4n3)cc1)C2 (stereo partly shown) | inhibition at 0.01 µM | 60 to 90%
C=CC(=O)N1CCN(C(CC23CC(C2)C3)c2ccc([C@H](C)Nc3ncc4[nH]c(=O)n(C5CC5)c4n3)cc2)CC1 (stereo partly shown) | inhibition at 0.01 µM | > 90%
C=CC(=O)N1CCN(C(CC23CC(C2)C3)c2ccc([C@H](C)Nc3ncc4[nH]c(=O)n(C(C)C)c4n3)cc2)CC1 (stereo partly shown) | inhibition at 0.01 µM | > 90%
C=CC(=O)N1CCN(C(CC)c2ccc([C@H](C)Nc3ncc4[nH]c(=O)n(CC)c4n3)cc2)CC1 (stereo partly shown) | inhibition at 0.01 µM | 60 to 90%

Now consider the entry below.
Request the reported inhibition at 0.01 µM associated with C=CC(=O)NC1CCN(C(CC2CC2)c2ccc([C@H](C)Nc3ncc4[nH]c(=O)n(CC)c4n3)cc2)CC1 (stereo partly shown)
60 to 90%

###

- measured_target: IDH1 R132C (Homo sapiens, UniProt O75874, R132C)
- Construct: endogenous in cells
- Sequence (O75874 whole entry R132C): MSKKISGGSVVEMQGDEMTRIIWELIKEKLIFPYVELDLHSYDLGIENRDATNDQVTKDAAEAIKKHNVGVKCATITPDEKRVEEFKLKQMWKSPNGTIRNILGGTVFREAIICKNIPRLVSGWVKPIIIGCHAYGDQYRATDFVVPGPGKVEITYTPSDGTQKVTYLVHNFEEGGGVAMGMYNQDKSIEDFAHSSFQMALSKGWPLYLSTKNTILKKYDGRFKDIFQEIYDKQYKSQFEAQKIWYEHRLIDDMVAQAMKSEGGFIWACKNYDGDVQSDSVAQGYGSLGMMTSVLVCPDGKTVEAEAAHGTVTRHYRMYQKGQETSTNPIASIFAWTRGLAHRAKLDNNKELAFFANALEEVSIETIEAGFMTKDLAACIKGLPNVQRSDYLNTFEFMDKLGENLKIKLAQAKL
- assay_procedure: Detection of 2-HG in supernatant of HT1080 cells carrying IDH1 R132C
- assay_setup: 72 h, LC-MS-MS
pIC50: −log10 of the molar value.
measured_endpoint: pIC50

Solved cases below.
compound | pIC50
C=CC(=O)N1CCN([C@@H](CC2CC2)c2ccc([C@H](C)Nc3ncc4[nH]c(=O)n(CC)c4n3)cc2)CC1 | 8.65
C=CC(=O)N1CCN(C(CC2CC2)c2ccc([C@H](C)Nc3ncc4[nH]c(=O)n(C(C)C)c4n3)cc2)CC1 (stereo partly drawn) | 8.69
C=CC(=O)N1CCN([C@@H](CC2CC2)c2ccc([C@H](C)Nc3ncc4c(n3)N(CC)C(=O)OC4)cc2)CC1 [LY-3410738, reference compound] | 8.72

I = C=CC(=O)N1CCN(C(CC2CC2)c2ccc(C(C)Nc3ncc4[nH]c(=O)n(C5CCCC5)c4n3)cc2)CC1 (stereo not drawn)
II = C=CC(=O)N1CCN([C@@H](CC2CC2)c2ccc([C@H](C)Nc3ncc4[nH]c(=O)n(C(C)C)c4n3)cc2)CC1
Recorded pIC50 values differ for I and II ; which one is higher? Your answer should be the label attached to the chosen record.
II
(II: 8.91, I: 8.49)

###

- measured_target: mIDH1 R132H (Homo sapiens, UniProt O75874, R132H)
- Construct: expressed in transfected cells; host or cells: U87MG
- assay_procedure: Detection of 2-HG in supernatant of U87-IDH1 R132H cells
- Type: cell-based
- assay_setup: U-87 MG; 10 nM compound, 72 h, U87MG cells overexpressing mIDH1 R132H, LC-MS-MS; read-out: Inhibition rate on 2-HG in the supernatant of U87-IDH R132H cells, 10 nM
measured_endpoint: inhibition at 0.01 µM

Solved cases below.
compound | inhibition at 0.01 µM
C=CC(=O)N1CCN(C(CC2CC2)c2ccc([C@H](C)Nc3ncc4[nH]c(=O)n(C5CC5)c4n3)cc2)CC1 (stereo partly drawn) | > 90%
C=CC(=O)N1CCN(C(CC2CCC2)c2ccc([C@H](C)Nc3ncc4[nH]c(=O)n(CC)c4n3)cc2)CC1 (stereo partly drawn) | 60 to 90%

Now consider the entry below.
Under mIDH1 R132H (Homo sapiens, UniProt O75874, R132H): inhibition at 0.01 µM value of `C=CC(=O)N1CCN(C2(c3ccc([C@H](C)Nc4ncc5[nH]c(=O)n(CC)c5n4)cc3)CCCCC2)CC1` ?
60 to 90%

###

- measured_target: mIDH1 R132H (Homo sapiens, UniProt O75874, R132H)
- Construct: expressed in transfected cells; host or cells: U87MG
- assay_procedure: Detection of 2-HG in supernatant of U87-IDH1 R132H cells
- Assay type: cell-based
- assay_setup: U-87 MG; 1 nM compound, 72 h, U87MG cells overexpressing mIDH1 R132H, LC-MS-MS; read-out: Inhibition rate on 2-HG in the supernatant of U87-IDH R132H cells, 1 nM
- Procedure: U87MG cells overexpressing the mIDH1 R132H mutation or HT1080 cells carrying IDH1 R132C were seeded in a 48-well plate and a 96-well plate at 50,000 cells/well and 10,000 cells/well, respectively. After the cells were incubated overnight for adhesion, the supernatants were removed. […] The 2-HG content in the culture media was analyzed by LC-MS-MS. The percentage inhibition and IC50 of the compounds on 2-HG in the supernatant were calculated as compared with the control group.
measured_endpoint: inhibition at 0.001 µM

Solved cases below.
compound | result
C=CC(=O)N1CCN(C(CC2CC2)c2ccc([C@H](C)Nc3ncc4[nH]c(=O)n(C5CCCC5)c4n3)cc2)CC1 (stereo partly shown) | < 30%
C=CC(=O)N(C)C1CCN(C(CC2CC2)c2ccc([C@H](C)Nc3ncc4[nH]c(=O)n(CC)c4n3)cc2)CC1 (stereo partly shown) | 30 to 60%
C=CC(=O)N1CCN(C(CC23CC(C2)C3)c2ccc([C@H](C)Nc3ncc4[nH]c(=O)n(C(C)C)c4n3)cc2)CC1 (stereo partly shown) | 60 to 90%

Request the reported inhibition at 0.001 µM associated with C=CC(=O)N1CCN(C(CC23CC(C2)C3)c2ccc([C@H](C)Nc3ncc4[nH]c(=O)n(C5CC5)c4n3)cc2)CC1 (stereo partly shown)
60 to 90%

C=CC(=O)N1CCN([C@@H](CC2CC2)c2ccc([C@H](C)Nc3ncc4c(n3)N(CC)C(=O)OC4)cc2)CC1 [LY-3410738, reference compound] ?
30 to 60%

C=CC(=O)N(C)C1CN(C(CC2CC2)c2ccc([C@H](C)Nc3ncc4[nH]c(=O)n(CC)c4n3)cc2)C1 (stereo partly shown) ?
< 30%

`C=CC(=O)N1CCN(C2(c3ccc([C@H](C)Nc4ncc5[nH]c(=O)n(CC)c5n4)cc3)CCC(F)(F)CC2)CC1` ?
30 to 60%

C=CC(=O)N1CCN(C(CC23CC(C2)C3)c2ccc([C@H](C)Nc3ncc4[nH]c(=O)n(C5CCC5)c4n3)cc2)CC1 (stereo partly shown) ?
30 to 60%

C=CC(=O)N1CCN(C(CC2CC2)c2ccc(C3(Nc4ncc5[nH]c(=O)n(CC)c5n4)CC3)cc2)CC1 (stereo not shown) ?
< 30%

`C=CC(=O)N1CCN(C2(c3ccc([C@H](C)Nc4ncc5[nH]c(=O)n(CC)c5n4)cc3)CCCCC2)CC1` ?
30 to 60%

N#Cc1ccnc(N2C(=O)CC[C@H]2C(=O)N(c2cncc(F)c2)[C@H](C(=O)NC2CC(F)(F)C2)c2ccccc2Cl)c1 [Ivosidenib, ivosidenib, reference compound] ?
< 30%

C=CC(=O)N1CCN(C(CC2CC2)c2ccc([C@H](C)Nc3ncc4[nH]c(=O)n(CC)c4n3)cc2)CC1 (stereo partly shown) ?
60 to 90%

C=CC(=O)N1CCN(C(CC(C)C)c2ccc([C@H](C)Nc3ncc4[nH]c(=O)n(C5CCCC5)c4n3)cc2)CC1 (stereo partly shown) ?
30 to 60%

###

- assay_procedure: Stability test of human liver microsomes
- Type: in vitro ADME
- assay_setup: 1 μM compound, 500 μg/ml human liver microsomes, NADPH regeneration system, 37° C.; read-out: Liver microsomal stability T1/2, Human
measured_endpoint: half-life at 1 μM (min)

molecule | quantity_unit | half-life at 1 μM
C=CC(=O)N1CCN([C@@H](CC2CC2)c2ccc([C@H](C)Nc3ncc4[nH]c(=O)n(CC)c4n3)cc2)CC1 | min | 11.3
C=CC(=O)N1CCN(C(CC2CC2)c2ccc(C(C)Nc3ncc4[nH]c(=O)n(C5CCCC5)c4n3)cc2)CC1 (stereo not shown) | min | 4.4

1 = C=CC(=O)N1CCN([C@@H](CC2CC2)c2ccc([C@H](C)Nc3ncc4[nH]c(=O)n(C(C)C)c4n3)cc2)CC1
2 = C=CC(=O)N1CCN([C@@H](CC2CC2)c2ccc([C@H](C)Nc3ncc4c(n3)N(CC)C(=O)OC4)cc2)CC1 [LY-3410738, reference compound]
Recorded half-life at 1 μM values differ for 1 and 2 ; which one is higher? Your answer should be the label attached to the chosen record.
1
